biological target: human alpha-synuclein (human, UniProt P37840 1-140); assay: SPR Biacore 3000, IgG captured by anti-human IgG on CM5 chip
parameterMeasured: KD improvement

>>> result("9C12 (antibody, V domains shown) VH: QVQLVQSGAEVKKPGASVKVSCKASGYTFTSYWMHWMRQAPGQGLEWIGRIDPNSGTTKYNVNIKTRATLTVDKSTSTAYMELSSLRSEDTAVYYCARLGHYGNLYAMDYWGQGTLVT VL: EIVLTQSPATLSLSPGERATLSCSASSSVSYMHWYQQKPGQAPRRLIYDTSKLASGVPARFSGSGSGTDYTLTISSLEPEDFAVYYCQQWSSNPPTFGQGTKLEIK")
"10 fold"
